system: Enterobacter cloacae; experiment: Inhibition of Enterobacter cloacae CTX-M-15 expressed in Escherichia coli BL21 DE3 assessed as K2/Ki ratio using nitrocefin as substrate by spectrophotometry
MEASURE_NAME: Ratio

{"columns": ["SMI", "RESULT"],
 "data": [
  ["CC(C)(C)OC(=O)N1CCC(c2cn(C[C@@H]3CC[C@@H]4CN3C(=O)N4OS(=O)(=O)[O-])nn2)CC1.[Na+]", "230 M⁻¹ s⁻¹"],
  ["O=C1N2C[C@@H](CC[C@H]2Cn2cc(-c3ccccc3)nn2)N1OS(=O)(=O)[O-].[Na+]", "6900 M⁻¹ s⁻¹"],
  ["O=C(NC1CCNCC1)[C@@H]1CC[C@@H]2CN1C(=O)N2OS(=O)(=O)[O-].[Na+]", "960 M⁻¹ s⁻¹"],
  ["O=C1N2C[C@@H](CC[C@H]2Cn2ccnn2)N1OS(=O)(=O)[O-].[Na+]", "280 M⁻¹ s⁻¹"]
]}
